Target: monoamine oxidase B (MAO B) (Homo sapiens, UniProt P27338)
Sequence (P27338 whole entry, species assumed): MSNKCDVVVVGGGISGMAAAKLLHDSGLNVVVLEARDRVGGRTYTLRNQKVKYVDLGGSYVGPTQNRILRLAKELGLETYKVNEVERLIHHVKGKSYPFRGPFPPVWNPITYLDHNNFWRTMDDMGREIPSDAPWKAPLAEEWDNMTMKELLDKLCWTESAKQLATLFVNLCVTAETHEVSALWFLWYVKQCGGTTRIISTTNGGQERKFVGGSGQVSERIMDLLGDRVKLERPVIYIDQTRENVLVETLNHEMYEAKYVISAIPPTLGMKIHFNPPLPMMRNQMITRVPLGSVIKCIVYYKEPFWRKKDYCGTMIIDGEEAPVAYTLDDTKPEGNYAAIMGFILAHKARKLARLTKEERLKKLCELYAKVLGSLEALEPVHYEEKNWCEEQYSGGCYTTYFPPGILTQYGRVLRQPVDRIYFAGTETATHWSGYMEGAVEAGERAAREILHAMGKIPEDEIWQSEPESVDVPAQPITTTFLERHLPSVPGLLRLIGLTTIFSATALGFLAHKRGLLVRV
Assay: monoamine oxidase B assay (MDS Pharma Services)
Conditions: dose response, re-assay after screening
observation_type: EC50
Please append the unit to your numeric answer.

Enquiry: Recorded EC50 for `COc1cccc(/C=N/N(C(=O)C(F)(F)F)c2ccc(C)cc2C)c1` , please?
Return: 1880 nM

====

Molecular target: dopamine transporter (Homo sapiens)
Sequence (Q01959 whole entry): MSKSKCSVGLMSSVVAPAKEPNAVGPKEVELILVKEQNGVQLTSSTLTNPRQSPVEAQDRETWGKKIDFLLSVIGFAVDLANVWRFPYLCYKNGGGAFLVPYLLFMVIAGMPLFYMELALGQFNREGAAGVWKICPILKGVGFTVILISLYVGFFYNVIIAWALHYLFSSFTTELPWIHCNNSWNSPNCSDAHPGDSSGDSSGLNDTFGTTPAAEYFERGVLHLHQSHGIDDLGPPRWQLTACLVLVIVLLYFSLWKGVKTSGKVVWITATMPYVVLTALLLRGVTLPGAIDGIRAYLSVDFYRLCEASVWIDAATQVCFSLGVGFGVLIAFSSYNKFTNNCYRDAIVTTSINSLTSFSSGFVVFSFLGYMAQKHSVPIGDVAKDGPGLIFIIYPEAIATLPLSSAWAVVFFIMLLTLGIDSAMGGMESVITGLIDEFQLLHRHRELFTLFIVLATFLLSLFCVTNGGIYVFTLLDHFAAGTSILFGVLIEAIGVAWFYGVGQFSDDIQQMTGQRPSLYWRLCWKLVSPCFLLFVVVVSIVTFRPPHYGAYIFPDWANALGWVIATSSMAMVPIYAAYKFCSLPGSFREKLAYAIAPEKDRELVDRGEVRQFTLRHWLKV
Assay: dopamine transporter assay (MDS Pharma Services)
Conditions: dose response, re-assay after screening
observation_type: EC50 (nM)
// units = nM; emit number, no label

Enquiry: Entry `COc1cccc(/C=N/N(C(=O)C(F)(F)F)c2ccc(C)cc2C)c1` : reported EC50 = ?
Return: 649

Reference source for all entries: paper PMC3706879
